The origin of these recorded values is patent US20230123334A1.

# Tested on: HEK293 cells
# assay.comment: Preliminary screening as mRNA vectors, EGFP mRNA transfection of HEK293 cells
# Type: cell-based
# condition.summary: HEK293 cells, 96-well plates, EGFP mRNA 50 ng per well; percentage of GFP fluorescent cells relative to total number of cells (Hoechst)
# Procedure: Cell line: HEK293 cells (ATCC CRL-1573™) Medium: DMEM supplemented with 10% fetal bovine serum (Invitrogen) Screening: cell transfection on 96-well plates Detection (readout): percentage of the number of GFP fluorescent cells relative to the total number of cells (the total number of cells was determined using nucleus dye Hoechst). Lipofectamine2000 (Invitrogen) was used as the positive control. […]
Hi, to clarify the labels: yes covers Absolute mRNA transfection efficiency in HEK293 cells from 6% upward, no covers anything below 6%.

- test.smiles: "CCCCCCCCCCCCCCCCCCNc1nc(NCCCCCCCC)nc(NCCN(C)C)n1"
  label.value: "yes"
- test.smiles: "CCCCCCCCCCCCCCCNc1nc(NCCCCCCCCCCC)nc(NCCN2CCN(C)CC2)n1"
  label.value: "no"
- test.smiles: "CCCCCCCCCCCCCCCCSc1nc(NCCN2CCCC2)nc(SCCCCCCCCC)n1"
  label.value: "yes"
- test.smiles: "CCCCCCCCCCCCCCSc1nc(NCCN(CC)CC)nc(SCCCCCCCCCCCCCC)n1"
  label.value: "no"
- test.smiles: "CCCCCCCCCCCCCCCCNc1nc(NCCCCCCCCCCCCC)nc(NCCN2CCCC2)n1"
  label.value: "no"
